# Assay target: T1, cynomolgus monkey C-MET His tag, monomeric (cynomolgus monkey, UniProt A0M8R7 25-932 (Papio anubis entry))
# T1 construct: also called monomeric cyno C-MET; cyCMET
# T1 sequence (A0M8R7 25-932 S170N/I621T): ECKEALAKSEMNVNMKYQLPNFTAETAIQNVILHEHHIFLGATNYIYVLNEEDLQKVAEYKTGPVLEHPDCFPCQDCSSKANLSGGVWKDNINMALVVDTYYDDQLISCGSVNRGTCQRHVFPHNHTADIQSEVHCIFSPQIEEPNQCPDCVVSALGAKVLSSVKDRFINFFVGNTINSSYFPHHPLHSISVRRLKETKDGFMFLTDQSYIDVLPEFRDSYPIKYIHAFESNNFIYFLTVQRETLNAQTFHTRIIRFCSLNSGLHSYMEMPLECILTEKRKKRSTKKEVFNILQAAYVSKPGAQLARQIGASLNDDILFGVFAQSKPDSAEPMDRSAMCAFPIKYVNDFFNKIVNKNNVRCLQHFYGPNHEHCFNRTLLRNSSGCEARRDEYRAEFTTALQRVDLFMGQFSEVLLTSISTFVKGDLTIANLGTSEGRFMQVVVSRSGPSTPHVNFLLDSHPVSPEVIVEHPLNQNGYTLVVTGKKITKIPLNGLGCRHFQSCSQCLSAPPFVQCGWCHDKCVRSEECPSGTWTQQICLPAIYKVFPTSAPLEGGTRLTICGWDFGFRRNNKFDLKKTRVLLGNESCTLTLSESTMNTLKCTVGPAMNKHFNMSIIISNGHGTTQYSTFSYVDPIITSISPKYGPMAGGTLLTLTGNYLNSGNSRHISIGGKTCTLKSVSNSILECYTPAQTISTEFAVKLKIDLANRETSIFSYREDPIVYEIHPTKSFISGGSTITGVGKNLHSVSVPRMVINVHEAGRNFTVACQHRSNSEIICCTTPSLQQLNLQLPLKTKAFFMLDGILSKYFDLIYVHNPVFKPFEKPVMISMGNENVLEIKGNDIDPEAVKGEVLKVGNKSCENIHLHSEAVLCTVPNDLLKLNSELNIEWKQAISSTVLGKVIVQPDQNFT
# Protocol text: SPR Biacore, IgG captured, monomeric C-MET-His analyte
Property measured: kon (M⁻¹ s⁻¹)
Write the value in M⁻¹ s⁻¹ as a bare number.

MH9 (antibody, IgG4, V domains shown) VH: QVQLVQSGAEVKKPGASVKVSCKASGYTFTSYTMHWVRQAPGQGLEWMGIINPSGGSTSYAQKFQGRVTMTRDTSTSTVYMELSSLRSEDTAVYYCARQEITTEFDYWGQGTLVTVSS VL: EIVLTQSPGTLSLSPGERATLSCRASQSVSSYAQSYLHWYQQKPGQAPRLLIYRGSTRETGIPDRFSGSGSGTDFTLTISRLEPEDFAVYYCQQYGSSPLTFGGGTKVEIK: 110000

Then there is this binder:
# return recorded kon for input 09B08 (antibody, IgG4, V domains shown) VH: QVQLVQSGAEVKKPGASVKVSCKASGYTFTSYTMHWVRQAPGQGLEWMGWINPNNGSTNYAQKFQGRVTMTRDTSTSTVYMELSSLRSEDTAVYYCARSEITTDFDYWGQGTLVTVSS VL: EIVLTQSPGTLSLSPGERATLSCRASQSVSSYANSYLHWYQQKPGQAPRLLIYRGSTRESGIPDRFSGSGSGTDFTLTISRLEPEDFAVYYCQQSKSDPLTFGGGTKVEIK 60000

Data origin: patent US20260042850A1
